TEST: Determination of log P values by HPLC on reversed-phase column (formic acid method)
Format: physicochemical
RUN_PARAMETERS: reversed-phase HPLC column (C 18), pH 3.4, HPLC, reversed-phase C 18, acidic range (pH 3.4), formic acid eluents, 55° C.; read-out: logP (HCOOH)
MEASUREMENT_TYPE: chromatographic logP

P: CCC(=O)N(CC(F)(F)F)C(=O)c1sc(-c2cccnc2)nc1C [Compound 89]
Q: CCOC(CNC(=O)c1sc(-c2cccnc2)nc1C)OCC [Compound 108]
Kindly compare P with Q and tell me which has the lower chromatographic logP figure. Record your answer as the label of the chosen record.
Q
(Q: 1.78, P: 2.61)

I: Cc1nc(-c2cccnc2)sc1C(=O)N(Cc1ccco1)CC(F)(F)F [Compound 131]
II: CCOC(=O)CN(OC)C(=O)c1cnc(-c2cccnc2)s1 [Compound 178]
Kindly compare I with II and tell me which has the lower chromatographic logP figure. Record your answer as the label of the chosen record.
II
